- method notes: basal RPMI8226 mitochondrial membrane potential changes, profiling panel, cell-based, JC-1 fluorescence, 24 h, 100 nL compound (AID 1169); further: test concentration not given here
- run conditions: RPMI8226 myeloma, JC-1 mitochondrial potential fluorescence, higher = more signal
Categories are assigned from the measured z-score using these intervals: bottom end: < -0.1; midrange: ≥ -0.1 and < 0.2; top end: ≥ 0.2

{"columns": ["molecule", "class name"],
 "data": [
  ["CCOC(=O)[C@H](CC(C)C)NC(=O)CCC1CC(OC(=O)NCc2cccc3ccccc23)CC2(CCCC(COC(=O)NCc3ccncc3)O2)O1 (stereo not given in full)", "bottom end"],
  ["Cn1c(=O)n2n(c1=O)[C@H]1[C@H](O)[C@@H]3O[C@@H]3C(=NOCc3ccccc3)[C@H]1CC2", "midrange"],
  ["COc1ccc(O[C@H]2C=C[C@@H](c3ccccc3)O[C@@H]2CON=C(C)CCN2CCc3nc(-c4ccccc4)c(-c4ccccc4)cc3C2)cc1", "top end"],
  ["CC(C)(C)N1C(=O)[C@H]2[C@H]3[C@H](O)[C@H](O)CC(=O)[C@H]3CC[C@H]2C1=O", "top end"],
  ["CCOC(=O)[C@H](Cc1ccccc1)NC(=O)OC1CC(CCC2CC(CC)=NO2)OC2(CCCC(COC(=O)NCCC(C)C)O2)C1 (stereo not given in full)", "bottom end"],
  ["O=C1[C@H]2[C@H]3[C@H](O)[C@H](O)CC(=NOCc4ccccc4)[C@@H]3CC[C@H]2C(=O)N1Cc1ccc2c(c1)OCO2", "bottom end"],
  ["CO[C@@H]1COC(=O)CC=C[C@@H](C)[C@H](OC)COC(=O)[C@@H](C)COC(=O)CC=C[C@H]1C", "top end"],
  ["CCN1C(=O)[C@H]2[C@H]3[C@H](O)[C@H](O)CC(=NNC(=O)OCc4ccc(OC)cc4)[C@@H]3CC[C@H]2C1=O", "bottom end"],
  ["C=Cc1ccc([C@H]2N[C@H](C(=O)O)CC[C@@H]2C)cc1", "top end"],
  ["CC(C)CON=C1C[C@@H](O)[C@@H](O)[C@@H]2[C@@H]3C(=O)N(c4ccc(F)cc4F)C(=O)[C@@H]3CC[C@H]12", "top end"],
  ["COC(=O)CC=C[C@@H](C)[C@@H](C=NOC[C@@H](O)[C@H]1O[C@@H]2OC(C)(C)O[C@@H]2[C@H]1O)NS(=O)(=O)c1ccc(C)cc1", "bottom end"],
  ["C#CCCCON=C1C[C@@H](O)[C@@H](O)[C@@H]2[C@@H]3C(=O)N(CC)C(=O)[C@@H]3CC[C@@H]12", "midrange"],
  ["CCOC(=O)CCN1C(=O)[C@H]2[C@H]3[C@H](O)[C@H](O)CC(=NOCC(C)C)[C@H]3CC[C@H]2C1=O", "bottom end"],
  ["O=c1n(Cc2cc3c(cc2Cl)OCO3)c(=O)n2n1CC[C@@H]1C(=NOCc3ccccc3)[C@H]3O[C@H]3[C@@H](O)[C@@H]12", "midrange"]
]}

Cited source: PubChem BioAssay
